Each recorded value in this set is attributed to patent US20110118447A1.

# Test system: binding partner (antigen) of C5A (XPA23)
# Method description: Biacore, K-off, fold vs original
Reported fold difference in affinity vs original values for a set of binders

Binder: C5A (XPA23) VH T58F (antibody, V domains shown) VH: EVQLLESGGGLVQPGGSLRLSCAASGFTFSKYFMFWVRQAPGKGLEWVSVISPSGGMFRYADSVKGRFTISRDNSKNTLYLQMNSLRAEDTAVYYCARVGYGGNSDYWGQGTLVTVSS VL: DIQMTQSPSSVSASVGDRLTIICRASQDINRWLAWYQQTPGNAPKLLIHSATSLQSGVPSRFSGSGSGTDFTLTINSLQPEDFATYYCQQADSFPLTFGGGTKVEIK
fold difference in affinity vs original: 1.04 fold
//
Binder: C5A (XPA23) VH P53I (antibody, V domains shown) VH: EVQLLESGGGLVQPGGSLRLSCAASGFTFSKYFMFWVRQAPGKGLEWVSVISISGGMTRYADSVKGRFTISRDNSKNTLYLQMNSLRAEDTAVYYCARVGYGGNSDYWGQGTLVTVSS VL: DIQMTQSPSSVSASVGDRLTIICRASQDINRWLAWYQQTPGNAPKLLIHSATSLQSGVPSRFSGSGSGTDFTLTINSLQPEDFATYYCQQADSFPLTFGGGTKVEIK
fold difference in affinity vs original: 0.08 fold
//
Binder: C5A (XPA23) VH G103V (antibody, V domains shown) VH: EVQLLESGGGLVQPGGSLRLSCAASGFTFSKYFMFWVRQAPGKGLEWVSVISPSGGMTRYADSVKGRFTISRDNSKNTLYLQMNSLRAEDTAVYYCARVGYGVNSDYWGQGTLVTVSS VL: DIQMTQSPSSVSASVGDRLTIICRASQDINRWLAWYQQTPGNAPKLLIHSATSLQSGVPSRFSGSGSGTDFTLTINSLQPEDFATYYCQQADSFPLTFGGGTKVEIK
fold difference in affinity vs original: 2.56 fold
//
Binder: C5A (XPA23) VH S54V (antibody, V domains shown) VH: EVQLLESGGGLVQPGGSLRLSCAASGFTFSKYFMFWVRQAPGKGLEWVSVISPVGGMTRYADSVKGRFTISRDNSKNTLYLQMNSLRAEDTAVYYCARVGYGGNSDYWGQGTLVTVSS VL: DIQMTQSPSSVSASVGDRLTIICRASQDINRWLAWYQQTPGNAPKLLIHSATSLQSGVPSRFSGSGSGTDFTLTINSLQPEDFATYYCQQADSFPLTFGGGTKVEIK
fold difference in affinity vs original: 1 fold
//
Binder: C5A (XPA23) VH F35L (antibody, V domains shown) VH: EVQLLESGGGLVQPGGSLRLSCAASGFTFSKYFMLWVRQAPGKGLEWVSVISPSGGMTRYADSVKGRFTISRDNSKNTLYLQMNSLRAEDTAVYYCARVGYGGNSDYWGQGTLVTVSS VL: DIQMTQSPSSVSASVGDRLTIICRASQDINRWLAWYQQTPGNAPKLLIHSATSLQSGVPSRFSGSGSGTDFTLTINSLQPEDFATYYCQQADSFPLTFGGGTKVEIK
fold difference in affinity vs original: 0.78 fold
